Value source: patent US20220017636A1

// Signal/background lookup, one value per entry
# target_of_assay: T1, MB peptide complexed with HLA-A*02:01 on T2 cells (human)
# T1 construct: whole, on cells
# method_summary: flow cytometry, peptide-loaded T2 cells;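 further: binding of single-chain Fv antibody constructs, raised in XenoMouse, to peptide-pulsed T2 cells measured by flow cytometry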

binder: 18089-D12 (scFv, scFv in bacterial lysate, detected with anti-Flag M2) scFv: EVQLLESGGGVVQPGRSLRLSCAASGFTFSTYGMHWVRQAPGKGLEWVAVISYDGSNKYYADSVKGRFTISRDDSKNTLYLQMNSLRAEDTAVYYCARGQLLTGYWGQGTLVTVSSGGGGSGGGGSGGGGSELVMTQSPSSLSASVGDRVTITCRASQGISNYLAWYQQKPGKVPKLLIYAASTLQSGVPSRFSGSGSGTDFTLTISSLQPEDVATYYCQKYNSAPFTFGPGTKVEIK
Signal/background: 1.1
//
binder: 18182-E10 (scFv, scFv in bacterial lysate, detected with anti-Flag M2) scFv: EVQLLESGGGLVQPGGSLRLSCAASGFTFSSHAMSWVRQAPGQGLEWVSSISGSGGGTYYAASVKGRFTISRDNSKNTLYLQMNSLRAEDTAVYYCATGKGVHLNFDYWGQGTLVTVSSGGGGSGGGGSGGGGSELALTQPASASVAPGQTARITCGGNNIGSKSVHWHQQKPGQAPVLVVYDDNDRPSGIPERFSGSNSGNTATLTISRVEAGDEADFYCQVWDSSSDHVVFGGGTKLTVL
Signal/background: 0.9
//
binder: 18179-D7 (scFv, scFv in bacterial lysate, detected with anti-Flag M2) scFv: EVQLLESGGGLVQPGGSLRLSCAASGFTFSNAWMSWVRQAPGKGLEWVGRIKGNTYGGTTDYAAPVKGRFTISRDDSKNTLFLQMNSLKTEDTAVYYCTTPSYSGSYYNYFSVMDVWGQGTTVTVSSGGGGSGGGGSGGGGSELVMTQSPSSLSASVGDRVTITCRTSQSISSYLNWYQQKPGRAPKLLIFAASSLQGGVPSRFSGSGSGTDFTLTISSLQPEDFATYYCQQTYSMPFTFGPGTKVDIK
Signal/background: 1
//
binder: 18179-C1 (scFv, scFv in bacterial lysate, detected with anti-Flag M2) scFv: EVQLLESGAEVKKPGASVKVSCKASGYTFTRNGLSWVRQAPGQGLEWMGWISGYNGDTNYAQKLQGRGTMTTDTSTSTAYMELRSLRSDDTAVYYCARGRATFDYWGQGTLVTVSSGGGGSGGGGSGGGGSELVMTQSPSSLSASVGDRVTITCRASQGISNYLAWYQQKPGKVPKLLISAASTLQSGVPSRFSGSGSGTDFTLTISSLQPEDVATYYCQKYNSAPFTFGPGTKVDIK
Signal/background: 1
//
binder: 18181-G10 (scFv, scFv in bacterial lysate, detected with anti-Flag M2) scFv: EVQLLESGPGLVKPSQTLSLTCTVSGDSISSNPYYWSWIRQLPGKGLEWIGYISYSGSTFYNPSLKSRVTISVDTSKNQFSLNLTSVTAADTAVYYCARDRLWFGVLNYYYGMDVWGLGTTVTVSSGGGGSGGGGSGGGGSELVMTQSPLSLPVTPGEPASISCRSSQSLLHSTGYNYVDWYLQKPGQSPQLLIYLGSNRASGVPDRFSGSGSGTDFTLKISRVEAEDVGFYYCMQALQTPRTFGQGTKVEIK
Signal/background: 1
//
binder: 18182-H12 (scFv, scFv in bacterial lysate, detected with anti-Flag M2) scFv: EVQLLESGGGLVQPGGSLRLSCAASGFTFSSYAMSWVRQAPGKGLEWVSTISGSGGGTYYADSVKGRFTISRDNSKNTLYLQMNSLRAEDTAVYYCATGKGVHLGFDYWGQGTLVTVSSGGGGSGGGGSGGGGSELMLTQPHSVSVAPGQTARITCGGNNIGSKSVHWYQQKPGQAPVLVVYDDNDRPSGIPERFSGSNFGNTATLIISRVEAGDEADYYCQVWDSSSDHVVFGGGTKLTVL
Signal/background: 1.2
//
binder: 18181-B8 (scFv, scFv in bacterial lysate, detected with anti-Flag M2) scFv: EVQLLESGPGLVKPSQTLSLTCTVSGGSISSGGYYWSWIRQHPGKGLEWIGYISHSGSTYYNPSLKSRVTISVDTSKNQFSLNLTSVTAADTAVYYCAREKMWFGVLNYYYGMDVWGQGTTVTVSSGGGGSGGGGSGGGGSELVMTQTPLSLPVTPGEPASISCRSSQSLLHRNGYNYLDWYLQKPGQSPQLLIYLGSNRASGVPDRFIGSGSGTDFTLEISRVEAEDVGVYYCMQALQTPSFGQGTKVEIK
Signal/background: 0.9
//
binder: 18181-G8 (scFv, scFv in bacterial lysate, detected with anti-Flag M2) scFv: EVQLLESGGGLVQPGGSLRLSCAASGFTFSNAWMSWVRQAPGKGLEWVGRIKGNTYGGTTDYAAPVKGRFTISRDDSKNTLFLQMNSLKTEDTAVYYCTTPSNSGSYYNYFSVMDVWGQGTTVTVSSGGGGSGGGGSGGGGSELVMTQSPSSLSASVGDRVTITCRTSQSISSYLNWYQQKPGKAPKLLIYAASSLQSGVPSRFSGSGSGTDFTLTISSLQPEDFATYYCQQTYSMPFTFGGGTKVEIK
Signal/background: 0.9
//
binder: 18182-E6 (scFv, scFv in bacterial lysate, detected with anti-Flag M2) scFv: EVQLLESGGGLVQPGGSLRLSCAASGFTFSSYAMSWVRQAPGKGLEWVSAISGSGGGTYYADSVKGRFTISRDNSKNTLYLQMNSLRAEDTAVYYCATGKGVHLNFDYWGQGTLVTVSSGGGGSGGGGSGGGGSELVLTQPSSVSVAPGQTARITCGGNNIGSKSVHWYQQKPGQAPVLVVYDDNDRPSGIPERFSGSNFGNTATLIISRVAAGDEADYYCQVWDSSSDHVVFGGGTKLTVL
Signal/background: 0.9
//
binder: 18081-E7 (scFv, scFv in bacterial lysate, detected with anti-Flag M2) scFv: EVQLLESGPGLVKPSETLSLTCTVSGDSISSSRYYWGWIRQPPGKGLEWIGSIYYSGSTYYNPSLKSRVTISVDTSKNQFSLKLSSVTAADTAVYYCARGIFGVITYFDYWGQGTLVTVSSGGGGSGGGGSGGGGSELVMTQTPDSLAVSLGERATINCKSSQSVLYSSNNKNYLAWYQQKPGQPPKLLIYWASTRESGVPDRFSGSGSGTDFTLTISSLQAEDVAVYYCQQYYSTPLTFGGGTKVEIK
Signal/background: 1
